System: MCF7
assay info: cells
Assay type: functional, cell-based
condition details: Homo sapiens
Description: Antitumor activity against human MCF7 cells
pIC50: −log10 of the molar value.
measured quantity: pIC50

molecule	target of assay	pIC50
CCNCCCNCc1ccccc1CNCCCNCC	MCF7	< 4.52
Nc1ccccc1NC(=O)c1ccc(CNC(=O)CCCCC(=O)NCCCNCCCCNCCC(c2ccccc2)c2ccccc2)cc1	MCF7	< 4.52
CCNCCCNCC1CCC1CNCCCNCC (stereo not given)	MCF7	≤ 7.00
CCNCCCCNC[C@@H]1C[C@H]1NCCCCNCC	MCF7	< 4.52

Proceed to the following item.
Task: Test system MCF7; read-out pIC50; what value for CCNCCCNCCCNCCCNCC1CC1 ?
Result: 6.70

----------
Test system: NCI-H157
assay info: Antitumor activity against human NCI-H157 cells by MTT assay
Type: functional, cell-based
measured quantity: IC50 (µM)

structure as smiles	quantity unit	IC50
c1ccc(-c2ccccc2CNCCCNCCCCNCCCNCc2ccccc2-c2ccccc2)cc1	µM	4.1
COc1cc(C(C)(C)C)cc(C(C)(C)C)c1CNCCCNCCCNCCCNCc1c(OC)cc(C(C)(C)C)cc1C(C)(C)C	µM	4
c1ccc(-c2ccccc2CNCCCCNCCCNCc2ccccc2-c2ccccc2)cc1	µM	4
CC(C)c1ccc(CNCCCNCCCNCCCNCc2ccc(C(C)C)cc2)cc1	µM	4.1
c1ccc(C(CCNCCCNCCCNCCCNCCC(c2ccccc2)c2ccccc2)c2ccccc2)cc1	µM	4.1
